Target or system: proteasome subunit beta 5 of E. multilocularis (EmPSMB5, EmuJ_000590200_1) (Echinococcus multilocularis, UniProt A0A068Y5K9)
Sequence (A0A068Y5K9 66-269): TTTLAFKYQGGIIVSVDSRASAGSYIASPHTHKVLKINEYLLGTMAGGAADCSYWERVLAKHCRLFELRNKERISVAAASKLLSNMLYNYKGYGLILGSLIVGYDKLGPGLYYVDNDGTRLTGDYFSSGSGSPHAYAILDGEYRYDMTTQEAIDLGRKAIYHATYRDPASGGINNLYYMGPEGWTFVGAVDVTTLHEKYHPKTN
Run description: biochemical
pIC50: −log10 of the molar value.
Readout: pIC50

- CC(C)C[C@H](NC(=O)[C@H](Cc1ccccc1)NC(=O)c1cnccn1)B(O)O: 6.12
